Reference source: patent US20020137929A1

- Test system: MOOVA (Monochoria)
- procedureDetails: Preemergence weed control under flooded paddy conditions
- Type: in vivo, Monochoria vaginalis
- testParameters: 0.1250 kg/ha, rated 3-4 weeks after treatment
Listed next: entries and their corresponding Herbicidal rating MOOVA.
// no unit, no text: just the number

Solved entries (count: 5):
CCOC(=O)CN1C(=O)CSC1=Nc1cc(N2C(=O)C3=C(CCCC3)C2=O)c(F)cc1Cl: 9.0
C=CCN1C(=O)C(CC(=O)Nc2ccccc2)SC1=Nc1cc(-n2c(=O)cc(C(F)(F)F)n(C)c2=O)c(F)cc1Cl (stereo not shown): 7.0
CCOC(=O)CN1C(=O)C[S+]([O-])/C1=N/c1cc(-n2c(=O)cc(C(F)(F)F)n(C)c2=O)c(F)cc1Cl (stereo not shown): 9.0
CN1C(=O)CSC1=Nc1cc(N2C(=O)C3=C(CCCC3)C2=O)c(F)cc1Cl: 9.0
C=CCN1C(=O)CSC1=Nc1cc(-n2c(=O)cc(C(F)(F)F)n(C)c2=O)c(F)cc1Cl: 9.0

Tell me Herbicidal rating MOOVA reported for CCOC(=O)CN1C(=O)C(F)SC1=Nc1cc(-n2c(=O)cc(C(F)(F)F)n(C)c2=O)c(F)cc1Cl (stereo not shown)
4.0

Indicate its recorded Herbicidal rating MOOVA; the molecule in question is CCOC(=O)CN1C(=O)C(Cc2ccccc2OC(C)C(=O)OC)SC1=Nc1cc(-n2c(=O)cc(C(F)(F)F)n(C)c2=O)c(F)cc1Cl (stereo not shown)
3.0

---

- Test system: ECHORC (Watergrass (Calif.))
- procedureDetails: Preemergence weed control under flooded paddy conditions
- Format: in vivo, Echinochloa oryzoides
- testParameters: 0.1250 kg/ha, rated 3-4 weeks after treatment
experimentalEndpoint: herbicidal effect rating, ECHORC
Number, no unit, nothing else.

Reference set, count: 3
C#CC(C)N1C(=O)CSC1=Nc1cc(-n2c(=O)cc(C(F)(F)F)n(C)c2=O)c(F)cc1Cl (stereo not shown) [Compound 165]: 9.0
CCCN1C(=O)CSC1=Nc1cc(-n2c(=O)cc(C(F)(F)F)n(C)c2=O)c(F)cc1Cl [Compound 171]: 9.0
CN1C(=O)C(CC(=O)NO)SC1=Nc1cc(-n2c(=O)cc(C(F)(F)F)n(C)c2=O)c(F)cc1Cl (stereo not shown) [Compound 162]: 8.0

Note: attention shifts to another entry.
Note herbicidal effect rating, ECHORC for the compound shown: COC(=O)CSCCN1C(=O)CSC1=Nc1cc(-n2c(=O)cc(C(F)(F)F)n(C)c2=O)c(F)cc1Cl [Compound 158]
9.0

---

- System: CYPIR (Rice Flatsedge)
- procedureDetails: Postemergence weed control under flooded paddy conditions
- Assay type: in vivo, Cyperus iria
- testParameters: Rate 0.1250 kg/ha, postemergence weeds, rated 3 to 4 weeks after treatment
- Source text: Results of herbicide evaluation are expressed on a rating scale (0-9). The scale is based upon a visual observation of plant stand, vigor, malformation, size, chlorosis and overall plant appearance as compared with a control. Plastic containers containing weeds which are 3 to 5 cm tall and rice seedlings at the 1.5 to 2.5 leaf stage are flooded with water. […] The compounds evaluated are reported by compound number given in Example 37.
Kindly return Met if reported Herbicidal rating CYPIR is no lower than 5; return Not met if it is lower.

Before answering, review these 3 worked examples.
Cn1c(C(F)(F)F)cc(=O)n(-c2cc(N=C3SCC(=O)N3C3CCOC3=O)c(Cl)cc2F)c1=O (stereo not shown): Not met
CCS(=O)(=O)NC(=O)CC1SC(=Nc2cc(-n3c(=O)cc(C(F)(F)F)n(C)c3=O)c(F)cc2Cl)N(C)C1=O (stereo not shown): Met
C=CCN1C(=O)C(CC(=O)NOC)SC1=Nc1cc(-n2c(=O)cc(C(F)(F)F)n(C)c2=O)c(F)cc1Cl (stereo not shown): Met

Reported Herbicidal rating CYPIR reaches at least 5 for CCOC(=O)CN1C(=O)C(CC(=O)NS(=O)(=O)c2ccccc2)SC1=Nc1cc(-n2c(=O)cc(C(F)(F)F)n(C)c2=O)c(F)cc1Cl (stereo not shown) ?
Not met

Test whether the compound CCOC(=O)CN1C(=O)C(Cc2ccccc2OC(C)C(=O)O)S/C1=N/c1cc(-n2c(=O)cc(C(F)(F)F)n(C)c2=O)c(F)cc1Cl (stereo not shown) records Herbicidal rating CYPIR of 5 or higher.
Not met
